Test system: DFTD cell line T3 (06/0368)
Experiment Notes: cell viability, percent of DMSO control (CellTiter-Glo); higher = more viable cells
Measurement Conditions: 4.5 µM; 72 h
The reader will find reported cell viability values listed item by item below.
Give the value, in units of %, as a plain number.

Answered examples (5):
Compound	System	Number
C=CC(=O)Nc1cc2c(Nc3ccc(F)c(Cl)c3)ncnc2cc1OCCCN1CCOCC1	DFTD cell line T3 (06/0368)	32.5
CN(C)C/C=C/C(=O)Nc1cc2c(Nc3ccc(F)c(Cl)c3)ncnc2cc1O[C@H]1CCOC1	DFTD cell line T3 (06/0368)	24
COc1cccc2c1C(=O)c1c(O)c3c(c(O)c1C2=O)C[C@@](O)(C(=O)CO)C[C@@H]3O[C@H]1C[C@H](N)[C@H](O)[C@H](C)O1.Cl	DFTD cell line T3 (06/0368)	1.01
COc1cccc2c1C(=O)c1c(O)c3c(c(O)c1C2=O)C[C@@](O)(C(=O)CO)C[C@@H]3O[C@H]1C[C@H](N)[C@H](O)[C@H](C)O1	DFTD cell line T3 (06/0368)	-3.26
C#Cc1cccc(Nc2ncnc3cc(OCCOC)c(OCCOC)cc23)c1.Cl [Erlotinib hydrochloride]	DFTD cell line T3 (06/0368)	47.1

Q: Consider the compound "O=c1c(=NNc2nnn[nH]2)c(=O)c2ccccc12" and give its measured cell viability.
Ans: -0.369

Q: Consider the compound "CS(=O)(=O)CCNCc1ccc(-c2ccc3ncnc(Nc4ccc(OCc5cccc(F)c5)c(Cl)c4)c3c2)o1.Cc1ccc(S(=O)(=O)O)cc1" and give its measured cell viability.
Ans: 42.2

Q: Consider the compound "C=CC(=O)Nc1cccc(Nc2nc(Nc3ccc(N4CCN(C(C)=O)CC4)cc3OC)ncc2C(F)(F)F)c1" and give its measured cell viability.
Ans: 40.4

Q: Consider the compound "CCN1CCN(Cc2ccc(-c3cc4c(N[C@H](C)c5ccccc5)ncnc4[nH]3)cc2)CC1" and give its measured cell viability.
Ans: 36.4

Q: Consider the compound "Cc1cc(Nc2ncnc3ccc(NC4=NC(C)(C)CO4)cc23)ccc1Oc1ccn2ncnc2c1" and give its measured cell viability.
Ans: 45.3

Q: Consider the compound "CCOc1cc2ncc(C#N)c(Nc3ccc(OCc4ccccn4)c(Cl)c3)c2cc1NC(=O)/C=C/CN(C)C" and give its measured cell viability.
Ans: 42.4

Q: Consider the compound CCOc1cc2ncc(C#N)c(Nc3ccc(F)c(Cl)c3)c2cc1NC(=O)/C=C/CN(C)C [Pelitinib (EKB-569)] and give its measured cell viability.
Ans: 33.4

Q: Consider the compound C=CC(=O)N1CCC(Oc2cc3c(Nc4ccc(Cl)c(Cl)c4F)ncnc3cc2OC)CC1 [Poziotinib (HM781-36B)] and give its measured cell viability.
Ans: 35.9

Q: Consider the compound CNC(=O)CN1CCC(Oc2cc3c(Nc4cccc(Cl)c4F)ncnc3cc2OC)CC1 [AZD8931 (Sapitinib)] and give its measured cell viability.
Ans: 24.9

Q: Consider the compound "COc1cc2ncnc(Nc3ccc(Cl)cc3F)c2cc1OC" and give its measured cell viability.
Ans: 43.7
